- Test system: MV-4-11 (human biphenotypic leukaemia)
- Protocol Summary: In vitro cytotoxicity, MTT assay, MV-4-11
- Format: cell-based
// reported SI MV4-11 for each item listed
Respond numerically, and do not add a unit to the figure.

Before answering, review these 2 worked examples.
{"Compound": "CC[C@@H](C(=O)[C@@H](C)[C@@H](O)[C@H](C)[C@@H]1O[C@@H]([C@@H](CC)C(=O)O)CC[C@@H]1C)[C@H]1O[C@]2(C=C[C@@H](NC(=O)Nc3ccc(Cl)c(Cl)c3)[C@]3(CC[C@@](C)([C@H]4CC[C@](O)(CC)[C@H](C)O4)O3)O2)[C@H](C)C[C@@H]1C [FLC-00370-1•Na]", "Target Or System": "MV-4-11 (human biphenotypic leukaemia)", "Result Number": 106.9}
{"Compound": "CC[C@@H](C(=O)[C@@H](C)[C@@H](O)[C@H](C)[C@@H]1O[C@@H]([C@@H](CC)C(=O)O)CC[C@@H]1C)[C@H]1O[C@]2(C=C[C@@H](NC(=O)OCCOC(C)(C)C)[C@]3(CC[C@@](C)([C@H]4CC[C@](O)(CC)[C@H](C)O4)O3)O2)[C@H](C)C[C@@H]1C [FLC-00480-1•Na]", "Target Or System": "MV-4-11 (human biphenotypic leukaemia)", "Result Number": 9.7}

// next item, SI MV4-11 requested
Which SI MV4-11 value is on record for CC[C@@H](C(=O)[C@@H](C)[C@@H](O)[C@H](C)[C@@H]1O[C@@H]([C@@H](CC)C(=O)O)CC[C@@H]1C)[C@H]1O[C@]2(C=C[C@@H](NC(=O)N(C)C)[C@]3(CC[C@@](C)([C@H]4CC[C@](O)(CC)[C@H](C)O4)O3)O2)[C@H](C)C[C@@H]1C [FLC-00538-1•Na] ?
9.2
